Reported Metric: logP

[[record]]
test_smiles = "Clc1cc(Cl)c2c(c1)oc1c(Cl)cc(Cl)cc12"
readout_value = 6.37

[[record]]
test_smiles = "Clc1cc2oc3cc(Cl)c(Cl)c(Cl)c3c2cc1Cl"
readout_value = 6.79

[[record]]
test_smiles = "Clc1cc(Cl)c2c(oc3ccc(Cl)c(Cl)c32)c1Cl"
readout_value = 6.51

[[record]]
test_smiles = "Clc1cc2oc3cc(Cl)c(Cl)cc3c2cc1Cl"
readout_value = 6.53

[[record]]
test_smiles = "Clc1cc(Cl)c2c(c1)oc1cc(Cl)cc(Cl)c12"
readout_value = 6.34

[[record]]
test_smiles = "Clc1cc(Cl)c2oc3c(Cl)c(Cl)ccc3c2c1"
readout_value = 6.25

[[record]]
test_smiles = "Clc1c(Cl)c(Cl)c2c(oc3ccccc32)c1Cl"
readout_value = 6.17

[[record]]
test_smiles = "Clc1cc(Cl)c2oc3c(Cl)c(Cl)c(Cl)cc3c2c1"
readout_value = 6.59

[[record]]
test_smiles = "Clc1cc(Cl)c2oc3c(Cl)ccc(Cl)c3c2c1Cl"
readout_value = 6.59

[[record]]
test_smiles = "Clc1cc(Cl)c2c(oc3c(Cl)cccc32)c1Cl"
readout_value = 6.31

[[record]]
test_smiles = "Clc1ccc2oc3c(Cl)c(Cl)c(Cl)c(Cl)c3c2c1"
readout_value = 6.79

[[record]]
test_smiles = "Clc1cc(Cl)c2oc3cc(Cl)c(Cl)cc3c2c1"
readout_value = 6.73

[[record]]
test_smiles = "Clc1cc(Cl)c2oc3c(Cl)c(Cl)cc(Cl)c3c2c1"
readout_value = 6.24

